Each recorded value in this set is attributed to ChEMBL document CHEMBL6078622.

# System: Pseudomonas aeruginosa
# Assay Text: Synergistic antibacterial activity against Pseudomonas aeruginosa PAO1 assessed as fold change in doxycycline MIC by checkerboard analysis relative to doxycycline alone
# Format: functional
Outcome Measure: fold change (FC)
Give bare numbers.

See these solved cases before continuing.
Smiles Code	fold change (FC)
Cl.Cl.Cl.Cl.Cl.Cl.NC[C@H]1O[C@H](O[C@H]2[C@H](OCCCCCCCCNC(=O)c3cn(C4CC4)c4cc(N5CCNCC5)c(F)cc4c3=O)[C@@H](O[C@H]3O[C@H](CO)[C@@H](O)[C@H](N)[C@H]3O)[C@H](N)C[C@@H]2N)[C@H](N)C[C@@H]1O	4
CC(=O)NCCCCCCCCCCCCO[C@@H]1[C@@H](O[C@H]2O[C@H](CO)[C@@H](O)[C@H](N)[C@H]2O)[C@H](N)C[C@H](N)[C@H]1O[C@H]1O[C@H](CN)[C@@H](O)C[C@H]1N.Cl.Cl.Cl.Cl.Cl	8
Cl.Cl.Cl.Cl.Cl.Cl.NC[C@H]1O[C@H](O[C@H]2[C@H](OCCCCCCCCCCCCNC(=O)c3cn(C4CC4)c4cc(N5CCNCC5)c(F)cc4c3=O)[C@@H](O[C@H]3O[C@H](CO)[C@@H](O)[C@H](N)[C@H]3O)[C@H](N)C[C@@H]2N)[C@H](N)C[C@@H]1O	64

Next, consider the following compound.
Here Cl.Cl.Cl.Cl.Cl.Cl.NC[C@H]1O[C@H](O[C@H]2[C@H](OCc3ccc(-c4ccc(CNC(=O)c5cn(C6CC6)c6cc(N7CCNCC7)c(F)cc6c5=O)cc4)cc3)[C@@H](O[C@H]3O[C@H](CO)[C@@H](O)[C@H](N)[C@H]3O)[C@H](N)C[C@@H]2N)[C@H](N)C[C@@H]1O was tested on Pseudomonas aeruginosa, and its fold change (FC) came to 16

---

# Test system: Pseudomonas aeruginosa
# Assay Text: Antibacterial activity against Pseudomonas aeruginosa PA100036 assessed as inhibition of visible bacterial growth by CLSI based broth-microdilution method
# Type: functional
Outcome Measure: MIC (mg/L)
Answers are plain numbers, in mg/L.

Form field MIC, entry CN(C)c1cc(NC(=O)CNC(C)(C)C)c(O)c2c1C[C@H]1C[C@H]3[C@H](N(C)C)C(O)=C(C(N)=O)C(=O)[C@@]3(O)C(O)=C1C2=O : 64

---

# System: Pseudomonas aeruginosa
# Assay Text: Antibacterial activity against Pseudomonas aeruginosa PA100036 assessed as inhibition of visible bacterial growth by CLSI based broth-microdilution method
# Type: functional
Outcome Measure: MIC (µg/mL)
Give bare numbers, in µg/mL.

                                   compound           tested_target  outcome_measure  measured
0  CN(C)c1ccc(O)c2c1C[C@H]1C[C@H]3[C@H](N(C)C)C(O)=C(C(N)=O)C(=O)[C@@]3(O)C(O)=C1C2=O [MINOCYCLINE]  Pseudomonas aeruginosa              MIC       128

Let us move to another entry and its MIC.
Memo: CN(C)[C@@H]1C(O)=C(C(N)=O)C(=O)[C@@]2(O)C(O)=C3C(=O)c4c(O)c(NC(=O)CN5CCCC5)cc(F)c4C[C@H]3C[C@@H]12 [ERAVACYCLINE] , reported MIC: 32

---

Provide the reported MIC of each item.
# Tested on: Pseudomonas aeruginosa
# Assay Text: Antibacterial activity against Pseudomonas aeruginosa PA264 assessed as inhibition of visible bacterial growth by CLSI based broth-microdilution method
# Format: functional
Numbers only, in µg/mL.

Known MIC results, listed for orientation:
Smiles Code	Tested Target	Units Of Measure	Measured
CN(C)c1ccc(O)c2c1C[C@H]1C[C@H]3[C@H](N(C)C)C(O)=C(C(N)=O)C(=O)[C@@]3(O)C(O)=C1C2=O	Pseudomonas aeruginosa	µg/mL	128
CN(C)c1cc(NC(=O)CNC(C)(C)C)c(O)c2c1C[C@H]1C[C@H]3[C@H](N(C)C)C(O)=C(C(N)=O)C(=O)[C@@]3(O)C(O)=C1C2=O	Pseudomonas aeruginosa	µg/mL	32

Turning to the following compound.
Lab note: CN(C)[C@@H]1C(O)=C(C(N)=O)C(=O)[C@@]2(O)C(O)=C3C(=O)c4c(O)c(NC(=O)CN5CCCC5)cc(F)c4C[C@H]3C[C@@H]12 gave MIC of 32
